Target: T1, CTLA-4-hFc (immunogen A; hFc-labeled CTLA-4 extracellular domain protein) (human, UniProt P16410 36-161)
T1 construct: range 36-161; Made in HEK293 cells, purified on protein A; also called CLTA-4-hFc; CTLA-4 protein; not shown: human IgG Fc fragment (hFc) of the pCpC vector
T1 sequence (looked up): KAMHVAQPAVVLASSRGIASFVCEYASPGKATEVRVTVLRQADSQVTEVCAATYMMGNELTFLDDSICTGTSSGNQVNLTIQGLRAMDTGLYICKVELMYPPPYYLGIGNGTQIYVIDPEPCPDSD
Experiment: ELISA, coated CTLA-4-hFc, competitor biotin-B7.1-hFc
quantity.kind: Inhibition rate (%) at 0.274 nM

[[record]]
binder = "31C12F3 (chimeric antibody purified from hybridoma supernatant) (antibody, V domains shown, also called mAb010) VH: QVQLVESGGGVVQPGRSLILSCAASGFTFSSYGMHWVRQAPGKGLEWVAVVWYDGSNKYYADSVKGRFTISRDNSKNTLYLQMSSLRAEDTAVYYCARGGIVVPGLFEYWGQGSLVTVSS VL: DIQMTQSPSSLSASVGDRVAITCRTSQSISNLLNWYQQKPGKAPELLIYAPSSFQSGVPSRFRGSGSGTDFTLTISSLQPEDFATYYCQQSYSTPFTFGPGTKVDIK"
result_unit = "%"
measurement = 25.7

[[record]]
binder = "92C8B6 (chimeric antibody purified from hybridoma supernatant) (antibody, V domains shown, also called mAb42; mAb042) VH: QVQLVESGGGVVQPGRSLRLSCAASGFTFSNFGMHWVRQAPGKGLEWVAVIWYDGSNKYYADSVKGRFTISRDNSKNTLFLQMNGLRAEDTAVYYCAKGGILMAGTLDYWGQGTLVTVSS VL: DIQMTQSPSSLSASVGDRVTITCRASQSVSTYLNWYQQKPGKAPKLLIYAASSFQSGVPSRFSGSGSGTDFTLTISSLQPEDFATYFCQQSYSTPFTFGPGTKVDIK"
result_unit = "%"
measurement = 55

[[record]]
binder = "40C4C6 (chimeric antibody purified from hybridoma supernatant) (antibody, V domains shown, also called mAb09; mAb009) VH: QVQLVESGGGVVQPGRSLRLSCAASGFTFSSYGMHWVRQAPGKGLEWVAVIWYDGRNKYYADSVKGRFTISRDNSKNTLYLQMNSLRAEDTAVYYCARASGSYSYYFDYWGQGTLVTVSS VL: DIQMTQSPSSLSASVGGRVTITCRASQSISSFLNWYQHELGKAPKLLIYGASSLQSGVPSRFSGSGSGTDFTLTISSLQPEDFATYYCQQTYSTPFTFGPGTKVDIK"
result_unit = "%"
measurement = 40

[[record]]
binder = "97A8D1 (chimeric antibody purified from hybridoma supernatant) (antibody, V domains shown, also called mAb49; mAb049) VH: QVQLVESGGGVVQPGRSLRLSCVASGFTFNNYGMNWVRQAPGKGLEWVAVIWYGGRNKFYADSVKGRFTISRDNSKNTLYLEMNSLRAEDTAVYYCARADWGGWFDPWGQGTLVTVSS VL: EIVLTQSPGTLSLSPGERATLSCRASQSVSSTYLAWYQQKPGQAPRLLIHGAFSRATGIPDRFSGSGSGPDFTLTISRLEPEDFAVYYCQQYGTSPFTFGPGTKVDIK"
result_unit = "%"
measurement = 4


Measured values drawn from patent US20210324080A1 for this set.
